B1: TPR t1 (parent)
chain: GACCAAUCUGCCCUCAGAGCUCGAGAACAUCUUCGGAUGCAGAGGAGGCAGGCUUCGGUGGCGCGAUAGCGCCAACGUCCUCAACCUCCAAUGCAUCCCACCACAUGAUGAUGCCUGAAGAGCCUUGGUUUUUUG

- Variants of: B1
- Procedure text: polymerase ribozyme fitness, log enrichment relative to wild type (log ratio); higher = more active; in vitro selection for triplet polymerase activity
Met means recorded polymerase ribozyme fitness (log ratio) is -3 or above; Not met means it is below -3.

Mutation descriptor | Category
C53A G71A | Met
G60A U92A | Not met
G63C C88A | Met
C49G C70U | Met
A41C G69C A83G | Not met
G63A U133A | Met
C8U G61U C88G U109A U133C | Not met
U9A G39A C56A G60A | Met
A83C A84C A119G | Met
C13U A121G | Met
C12U G48A C115G U129A G135U | Met
G17U G69U A84C C124A | Met
G61A G113U | Met
G61U C82A G107A | Not met
